B1: SH3 and PX domain-containing protein 2B, residues 155 to 209; numbered along this chain, A1X283 (parent)
chain: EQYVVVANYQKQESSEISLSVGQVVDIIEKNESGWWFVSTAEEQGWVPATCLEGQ

# Variants of: B1
# test: abundance fitness (aPCA) (normalised: wild type 0, dead -1); higher = more abundant; growth selection in yeast, the domain comes from the species named
# setup_conditions: Homo sapiens
endpoint_label: abundance fitness
Lab note: jot down the number only; don't add units.

Sample records with abundance fitness:
Dear colleague, I am looking for the recorded abundance fitness of the following variant: V25G -0.878

Dear colleague, I am looking for the recorded abundance fitness of the following variant: F37D -0.347

Dear colleague, I am looking for the recorded abundance fitness of the following variant: G34E -0.147

Dear colleague, I am looking for the recorded abundance fitness of the following variant: G34M -0.216

Dear colleague, I am looking for the recorded abundance fitness of the following variant: A49V -0.207

Dear colleague, I am looking for the recorded abundance fitness of the following variant: V5L -0.919

Dear colleague, I am looking for the recorded abundance fitness of the following variant: Q44C -0.216

Dear colleague, I am looking for the recorded abundance fitness of the following variant: Q2F -0.185

Dear colleague, I am looking for the recorded abundance fitness of the following variant: Y3F -0.053

Dear colleague, I am looking for the recorded abundance fitness of the following variant: S39V -0.414

Others:
Dear colleague, I am looking for the recorded abundance fitness of the following variant: E32G 0.001

Dear colleague, I am looking for the recorded abundance fitness of the following variant: E53T -0.018

Dear colleague, I am looking for the recorded abundance fitness of the following variant: S20Y -0.143

Dear colleague, I am looking for the recorded abundance fitness of the following variant: S14F -0.458

Dear colleague, I am looking for the recorded abundance fitness of the following variant: Q10H -0.145
